Reported pKd values are given for each entry in this list.
- Tested Target: TAMRA-TAX9 in complex with HLA-A*02:01 (hβ2m) (human | HTLV-1)
- Method Description: fluorescence polarisation
# reply with the number alone; pKd is -log10 of concentration in mol/L

Worked examples follow.
TAPBPR^WT (TAP-binding protein related, wild-type, luminal domain) (domain or fragment): 5.70
TAPBPR^ΔG24-R36 (luminal domain, deletion of residues G24-R36) (domain or fragment): 5.70

Attention now turns to another entry.
Consider the substance shown here: TAPBPR^ΔALAS (luminal domain, deletion of residues A29-S32) (domain or fragment) What is its recorded pKd?
5.70

# credit: paper PMC8154891
